- measurement-protocol: Cytotoxicity against human THP1 cells after 72 hrs by MTT assay
- Type: cell-based
- condition-summary: THP-1 cells
Property: CC50 at 72 h; scope: individual compounds
reported-property: CC50 at 72 h

In [3]: df
Out[3]:
                                   compound  reported_property    result
0  Fc1cccc(Cl)c1[C@@H]1C[C@@H]2Cc3ccccc3N1O2 (relative stereo)       CC50 at 72 h  > 300 µM
1  O[C@@H]1Cc2ccccc2N[C@H](c2ccc(F)cc2)C1 (relative stereo)       CC50 at 72 h  > 300 µM
2  O[C@@H]1Cc2cc(Cl)ccc2N[C@H](c2c(F)cccc2Cl)C1 (relative stereo)       CC50 at 72 h    110 µM
3  O[C@@H]1Cc2cc(Cl)ccc2N[C@H](c2ccc(Cl)cc2)C1 (relative stereo)       CC50 at 72 h   49.2 µM
4  Cc1cccc([C@@H]2C[C@H](O)Cc3ccccc3N2)c1 (relative stereo)       CC50 at 72 h    176 µM
5  O[C@@H]1Cc2ccccc2N[C@H](c2ccccc2Cl)C1 (relative stereo)       CC50 at 72 h  > 300 µM
6  Clc1ccc2c(c1)C[C@H]1C[C@@H](c3c(Cl)cccc3Cl)N2O1 (relative stereo)       CC50 at 72 h  > 295 µM
7  COc1cccc([C@@H]2C[C@H](O)Cc3ccccc3N2)c1 (relative stereo)       CC50 at 72 h  > 300 µM
8  O[C@@H]1Cc2ccccc2N[C@H](c2c(Cl)cccc2Cl)C1 (relative stereo)       CC50 at 72 h  > 300 µM

* * *

# Selectivity Index annotations
- measurement-protocol: Selectivity index, CC50 for human THP1 cells to IC50 for Leishmania chagasi MHOM/BR/74/PP75 amastigotes
- Assay type: functional, THP-1

compound	Selectivity Index
Fc1ccccc1[C@@H]1C[C@@H]2Cc3cc(Cl)ccc3N1O2 (relative stereo)	>3
O[C@@H]1Cc2cc(Cl)ccc2N[C@H](c2ccccc2Cl)C1 (relative stereo)	>0.75
C[C@@H]1[C@H](O)[C@@H](C)/C=C/C=C/C=C/C=C/C=C/C=C/C=C/[C@H](O[C@@H]2O[C@H](C)[C@@H](O)[C@H](N)[C@@H]2O)C[C@@H]2O[C@](O)(C[C@@H](O)C[C@@H](O)[C@H](O)CC[C@@H](O)C[C@@H](O)CC(=O)O[C@H]1C)C[C@H](O)[C@H]2C(=O)O	109.87

* * *

- measurement-protocol: Cytotoxicity against human THP1 cells after 72 hrs by MTT assay
- Assay type: cell-based
- condition-summary: THP-1 cells
Examples of molecules with documented CC90 at 72 h follow.
reported-property: CC90 at 72 h

                                   molecule    result
0  O[C@@H]1Cc2cc(Cl)ccc2N[C@H](c2c(F)cccc2Cl)C1 (relative stereo)    214 µM
1  O[C@@H]1Cc2cc(F)ccc2N[C@H](c2ccc(Cl)cc2)C1 (relative stereo)  > 300 µM
2  O[C@@H]1Cc2cc(Cl)ccc2N[C@H](c2c(Cl)cccc2Cl)C1 (relative stereo)  > 293 µM
3  Clc1ccccc1[C@@H]1C[C@@H]2Cc3ccccc3N1O2 (relative stereo)    211 µM
4  FC(F)(F)Oc1ccc2c(c1)C[C@H]1C[C@@H](c3ccccc3)N2O1 (relative stereo)  > 300 µM
5  O[C@@H]1Cc2ccccc2N[C@H](c2cccc(Cl)c2)C1 (relative stereo)  > 300 µM
6  O[C@@H]1Cc2ccccc2N[C@H](c2ccc(F)cc2)C1 (relative stereo)  > 300 µM
7  Fc1cccc(Cl)c1[C@@H]1C[C@@H]2Cc3ccccc3N1O2 (relative stereo)  > 300 µM
8  O[C@@H]1Cc2ccccc2N[C@H](c2ccccc2Cl)C1 (relative stereo)  > 300 µM
